- System: Toxoplasma gondii
- PROTOCOL: Antimicrobial activity against Toxoplasma gondii RH infected in HFF cells by plaque assay
- Assay type: functional, organism-based
RECORDED_METRIC: pIC50
The value called pIC50 is obtained by taking minus log10 of the concentration in mol/L.

Below, 2 compounds whose answers are already recorded.
// pIC50 lookup, compound = CCCN(CCC)c1c([N+](=O)[O-])cc(C(F)(F)F)cc1[N+](=O)[O-] [TRIFLURALIN] , result: 6.28

Per the record, CCCN(CCCl)c1c([N+](=O)[O-])cc(C(F)(F)F)cc1[N+](=O)[O-] [FLUCHLORALIN] has pIC50 of 6.48

Next:
Recorded pIC50 (compound CCCN(CC1CC1)c1c([N+](=O)[O-])cc(C(F)(F)F)cc1[N+](=O)[O-] [PROFLURALIN] ): 6.21

// recorded pIC50 for CCCN(CCC)c1c([N+](=O)[O-])cc(S(N)(=O)=O)cc1[N+](=O)[O-] [ORYZALIN] : 6.60
